pIC50 reference
System: KRAS G12V dependent lung adenocarcinoma cell line, NCI-H441
Experiment: Cellular pERK (Thr202/Tyr204) FRET/HTRF assay
Type: cell-based
Conditions: Homo sapiens, NCI-H441, cellular pERK (Thr202/Tyr204) HTRF, NCI-H441 cells
Protocol: “Ras” refers to a protein in the Ras superfamily of small GTPases, such as in the Ras subfamily. […] The Ras proteins play a critical role in the regulation of cell behaviors, including proliferation, differentiation, and survival. […] pERK was measured using an advanced pERK assay designed for the robust and highly sensitive quantification of ERK phosphorylation on Thr202/Tyr204. […] The simple mix-and-read protocol eliminates all wash steps for faster analysis and high-quality output. […]
pIC50: −log10 of the molar value.

# Molecule, Target of assay, pIC50
data = [
    ("Nc1cc(Cl)c(C(F)(F)F)c(-c2ncc3c(N4CCCC[C@@H]5[C@@H](F)[C@@H]54)nc(OC[C@@]45CCCN4C/C(=C/F)C5)nc3c2F)c1", "KRAS G12V dependent lung adenocarcinoma cell line, NCI-H441", "5.00 to 6.30"),
    ("C#Cc1c(F)ccc2cc(N)cc(-c3ncc4c(N5CCOC[C@H]6[C@H](F)[C@H]65)nc(OC[C@@]56CCCN5C/C(=C\\F)C6)nc4c3C)c12", "KRAS G12V dependent lung adenocarcinoma cell line, NCI-H441", "> 7.30"),
    ("[2H]C([2H])(Oc1nc(N2CCOC[C@H]3[C@H](F)[C@H]32)c2cnc(-c3cc(O)cc4ccc(Cl)c(C#C)c34)c(F)c2n1)[C@@]12CCCN1C[C@H](F)C2", "KRAS G12V dependent lung adenocarcinoma cell line, NCI-H441", "> 7.30"),
    ("C#Cc1cccc2cc(N)cc(-c3ncc4c(N5CCOC[C@H]6[C@H](F)[C@H]65)nc(OC[C@@H]5CCCN5C)nc4c3F)c12", "KRAS G12V dependent lung adenocarcinoma cell line, NCI-H441", "> 7.30"),
    ("C#Cc1c(F)ccc2cc(N)cc(-c3ncc4c(N5CCOC[C@H]6[C@H](F)[C@H]65)nc(OC[C@@]56CCCN5C[C@@H](C)C6)nc4c3F)c12 (single isomer, unassigned)", "KRAS G12V dependent lung adenocarcinoma cell line, NCI-H441", "> 7.30"),
]
